system: CTK; construct: gene MATK; settings: Compound Concentration (nM):1000;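 also: KINOMEscan scanMAX binding as percent activity remaining versus control; lower means stronger binding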
Collected Percent Control values appear next to each entry.
Assay metric: Percent Control

NS(=O)(=O)c1ccc(Nc2ncc(-c3ccccc3)o2)cc1 [GW572399X]: 100%
O=C(Nc1n[nH]c2nc(-c3ccc(O)cc3)c(Br)cc12)C1CC1 [SB-725317]: 100%
CCc1ccc(Oc2nccc(-c3c(-c4ccc(F)cc4)ncn3C3CCNCC3)n2)cc1 [SB-242719]: 89%
CC1=C(C(=O)Nc2ccc3[nH]ncc3c2)C(c2ccc(Cl)c(Cl)c2)CC(=O)N1 (stereo not shown) [GSK299115A]: 62%
COc1cc(C=NNc2ncnc3c2cnn3-c2ccccc2)ccc1O [GW513184X]: 100%
Cl.O=C(O[C@H]1CN[C@H](C#Cc2cc3ncnc(Nc4ccc5c(cnn5Cc5ccccc5)c4)c3s2)C1)N1CCOCC1 [GSK200398A]: 89%
Cc1cc(O)cc(C)c1/C=C/c1cncc(C(N)=O)c1 [GW435821X]: 98%
COc1ccccc1-c1cc(/C=C2\C(=O)Nc3ncc(Br)cc32)cc(Br)c1O [GW442130X]: 99%
CCn1c(-c2nonc2N)nc2c(C#CC(C)(C)O)nc(OCCNC)cc21.Cl [GSK949675]: 100%
COc1cccc(-n2ncc3c(N/N=C/c4ccncc4)ncnc32)c1 [GW784752X]: 99%
COc1cc2ncnc(Nc3ccc4c(cnn4Cc4ccccc4)c3)c2cc1OC.Cl [GW282449A]: 84%
Cl.O=C(Nc1ccc(Oc2ccc3[nH]c(NC(=O)c4ccccc4)nc3c2)cc1)Nc1cc(C(F)(F)F)ccc1F [GW709042A]: 100%
COc1cc(N2CCN(C(C)C)CC2)ccc1Nc1nc(Nc2ccc(F)cc2C(=O)NC[C@@H](O)CO)c2cc[nH]c2n1 [GSK1392956A]: 95%
